Target: NEK6 (human) (UniProt Q9HC98)
Sequence (Q9HC98 whole entry, looked up): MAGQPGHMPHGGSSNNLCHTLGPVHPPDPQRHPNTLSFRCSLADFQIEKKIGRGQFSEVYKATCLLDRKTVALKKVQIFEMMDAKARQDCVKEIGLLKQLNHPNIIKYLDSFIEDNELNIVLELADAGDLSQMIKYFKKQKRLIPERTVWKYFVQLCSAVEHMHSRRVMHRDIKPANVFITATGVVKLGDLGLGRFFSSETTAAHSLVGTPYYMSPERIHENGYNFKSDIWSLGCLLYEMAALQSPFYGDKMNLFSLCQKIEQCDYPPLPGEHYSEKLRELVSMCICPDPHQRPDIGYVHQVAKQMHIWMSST
Experiment: radiometric filter-binding kinase assay
Settings: compound 1.0 µM
Measured residual activity of individual entries
All answers are understood in %, so give the number only.

Worked set:
COMPOUND: C=CC(=O)N1CCC[C@@H](n2nc(-c3ccc(Oc4ccccc4)cc3)c3c(N)ncnc32)C1
VALUE MEASURED: 99

COMPOUND: NC(=O)c1c(NC(=O)C2CC2)sc2c1CCCC2
VALUE MEASURED: 107

COMPOUND: Cc1cccc(-c2nn(C(=S)Nc3ccccc3)cc2-c2ccnc3ccccc23)n1
VALUE MEASURED: 100

COMPOUND: CCCCCc1ccc(/C=C/[C@H](O)[C@@H](CO)NC)cc1
VALUE MEASURED: 86

COMPOUND: NC(=O)Nc1ccc2c(c1)/C(=C/c1cc(-c3cccnc3)c[nH]1)C(=O)N2
VALUE MEASURED: 76

COMPOUND: O=C(Nc1ccccc1-c1cn2c(CN3CCNCC3)csc2n1)c1cnc2ccccc2n1
VALUE MEASURED: 108

Given item O=C(Nc1nc2cc(C(F)(F)F)cc(NC3CC3)n2n1)c1cccnc1 , the value recorded as its residual activity is 101

Given item NC(=O)c1ccc(-c2ccc(Oc3cncc4sc(-c5nn[nH]n5)cc34)cc2)cc1 , the value recorded as its residual activity is 98

Given item O=C(NOCC(O)CO)c1ccc(F)c(F)c1Nc1ccc(I)cc1Cl (centres undefined) , the value recorded as its residual activity is 101
